- method-summary: Binding affinity against […] adrenergic receptor
measured-parameter: IC50 (nM)

molecule: CN(C)CC1CC2c3ccccc3Cc3ccc(Cl)cc3N2O1 (configuration not stated)
measured-parameter: IC50
value: 871

molecule: CN(C)C[C@@H]1C[C@@H]2c3ccccc3Cc3ccccc3N2O1
measured-parameter: IC50
value: 1860

---

- method-summary: Binding affinity against […] adrenergic receptor
pIC50: −log10 of the molar value.

compound: CN(C)CC1CC2c3cccnc3Cc3ccccc3N2O1 (configuration not stated)
pIC50: > 6.00
--
compound: CN(C)CC1CC2c3ccccc3Cc3ccncc3N2O1 (configuration not stated)
pIC50: > 6.00

Reference source for all entries: BindingDB's records for doi:10.1016/s0960-894x(02)00796-5
